Cited source: patent US8017612B2

MEASURED ON: HCV polymerase (NS5B) type 1a (Hepatitis C virus genotype 1a)
Construct: made in house; host or cells: Escherichia coli (by the 'similar method' of the 1b enzyme)
PROCEDURE SUMMARY: Assay of enzyme (HCV polymerase) inhibitory activity, type 1a enzyme
Format: biochemical, HCV type 1a (cloned from the blood of patients)
CONDITION INFO: HCV polymerase inhibitory activity IC50, 1a, type 1a enzyme
pIC50: −log10 of the molar value.
OBSERVED PROPERTY: pIC50

Request: Which value of pIC50 has been reported for CCCc1ccc(CNC(=O)[C@H]2CN(c3nc4c(C(=O)O)n[nH]c(=O)c4s3)CCN2S(=O)(=O)c2ccc(CC)cc2)cc1 in the records?
Result: > 7.00

Request: Which value of pIC50 has been reported for CC(C)(C)c1ccc(CNC(=O)[C@H]2CN(C(=O)/C=C\C(=O)O)CCN2S(=O)(=O)c2ccc(OC(F)(F)F)cc2)cc1 in the records?
Result: < 6.00

Request: Which value of pIC50 has been reported for O=C(NCc1c(Cl)cc(Cl)cc1Cl)[C@H]1CN(c2cnc3cncnc3n2)CCN1S(=O)(=O)c1ccc(OC(F)(F)F)cc1 in the records?
Result: > 7.00

Request: Which value of pIC50 has been reported for CCCc1ccc(CNC(=O)[C@H]2CN(c3nc4nc(Cl)ncc4s3)CCN2S(=O)(=O)c2ccc(OC(F)(F)F)cc2)cc1 in the records?
Result: > 7.00

Request: Which value of pIC50 has been reported for O=C(NCc1ccc(OC(F)(F)F)cc1)[C@H]1CN(c2nn3ccc(=O)nc3s2)CCN1S(=O)(=O)c1ccc(OC(F)(F)F)cc1 in the records?
Result: > 7.00

Request: Which value of pIC50 has been reported for O=C(NCc1ccc(OC(F)F)cc1F)[C@H]1CN(c2nc3nc(C4CC4)ncc3s2)CCN1S(=O)(=O)c1ccc(C(F)(F)F)cc1 in the records?
Result: > 7.00

Request: Which value of pIC50 has been reported for CCC(F)(F)c1ccc(CNC(=O)[C@H]2CN(c3cnc4cncnc4n3)CCN2S(=O)(=O)c2ccc([N+](=O)[O-])cc2)cc1 in the records?
Result: > 7.00

Request: Which value of pIC50 has been reported for O=C(NCc1ccc(OC(F)(F)F)cc1)[C@H]1CN(c2nc3cnnc(Cl)c3s2)CCN1S(=O)(=O)c1ccc(OC(F)(F)F)cc1 in the records?
Result: > 7.00

Request: Which value of pIC50 has been reported for O=C(NCc1ccc(OC(F)F)cc1F)[C@H]1CN(c2nc3nc(Cl)ncc3s2)CCN1S(=O)(=O)c1ccc(OC(F)(F)F)cc1 in the records?
Result: > 7.00

Request: Which value of pIC50 has been reported for CCCc1ccc(CNC(=O)[C@H]2CN(c3nc4c(C(=O)OCC)nncc4s3)CCN2S(=O)(=O)c2ccc(CC)cc2)cc1 in the records?
Result: > 7.00

Request: Which value of pIC50 has been reported for O=C(NCc1ccc(OC(F)(F)F)cc1)[C@H]1CN(c2cnc3c(Cl)cccc3n2)CCN1S(=O)(=O)c1ccc(OC(F)(F)F)cc1 in the records?
Result: 6.00 to 7.00

Request: Which value of pIC50 has been reported for COCC1(c2ncc3sc(N4CCN(S(=O)(=O)c5ccc(OC(F)(F)F)cc5)[C@@H](C(=O)NCc5ccc(OC(F)(F)F)cc5)C4)nc3n2)CC1 in the records?
Result: > 7.00

Request: Which value of pIC50 has been reported for CCOC(=O)c1ccc2nc(N3CCN(S(=O)(=O)c4ccc(OC(F)(F)F)cc4)[C@@H](C(=O)NCc4ccc(C(F)(F)CC)cc4)C3)cnc2c1 in the records?
Result: < 6.00

Request: Which value of pIC50 has been reported for N#Cc1ncc2sc(N3CCN(S(=O)(=O)c4ccc(C(F)(F)F)cc4)[C@@H](C(=O)NCc4ccc(OC(F)F)cc4)C3)nc2n1 in the records?
Result: > 7.00

Request: Which value of pIC50 has been reported for Cc1cc(=O)nc2sc(N3CCN(S(=O)(=O)c4ccc(C(F)(F)F)cc4)[C@@H](C(=O)NCc4ccc(OC(F)(F)F)cc4)C3)nn12 in the records?
Result: > 7.00

Request: Which value of pIC50 has been reported for O=C(NCc1ccc(C2CC2)cc1)[C@H]1CN(c2nc3nc(Cl)ncc3s2)CCN1S(=O)(=O)c1ccc(OC(F)(F)F)cc1 in the records?
Result: > 7.00

Request: Which value of pIC50 has been reported for Cc1nnc(Cl)c2sc(N3CCN(S(=O)(=O)c4ccc(OC(F)(F)F)cc4)[C@@H](C(=O)NCc4ccc(OC(F)(F)F)cc4)C3)nc12 in the records?
Result: > 7.00

Request: Which value of pIC50 has been reported for O=C(CC(=O)N1CCN(S(=O)(=O)c2ccc(OC(F)(F)F)cc2)[C@@H](C(=O)NCc2ccc(OC(F)(F)F)cc2)C1)Nc1nnc(Br)s1 in the records?
Result: < 6.00

Request: Which value of pIC50 has been reported for O=C(NCc1ccc(OC(F)(F)F)cc1)[C@H]1CN(c2nc3c(Cl)nncc3s2)CCN1S(=O)(=O)c1ccc(OC(F)(F)F)cc1 in the records?
Result: > 7.00

Request: Which value of pIC50 has been reported for O=C(NCc1ccc(OC(F)(F)F)cc1)[C@H]1CN(c2nc3cn[nH]c(=O)c3s2)CCN1S(=O)(=O)c1ccc(F)cc1 in the records?
Result: 6.00 to 7.00

Request: Which value of pIC50 has been reported for CCC(F)(F)c1ccc(CNC(=O)[C@H]2CN(c3cnc4cc(Cl)ccc4n3)CCN2S(=O)(=O)c2ccc(OC(F)(F)F)cc2)cc1 in the records?
Result: 6.00 to 7.00

Request: Which value of pIC50 has been reported for CC(=O)N1CCN(S(=O)(=O)c2ccc(C(C)C)cc2)C(C(=O)NCc2ccc(C(F)(F)F)cc2)C1 (stereo not shown) in the records?
Result: 6.00 to 7.00

Request: Which value of pIC50 has been reported for O=C(NCc1ccc(OC(F)(F)F)cc1)[C@H]1CN(c2nc3nc(CC4CC4)ncc3s2)CCN1S(=O)(=O)c1ccc(C(F)(F)F)cc1 in the records?
Result: > 7.00

Request: Which value of pIC50 has been reported for COc1ncc2sc(N3CCN(S(=O)(=O)c4ccc(OC(F)(F)F)cc4)[C@@H](C(=O)NCc4ccc(OC(F)(F)F)cc4)C3)nc2n1 in the records?
Result: > 7.00

Request: Which value of pIC50 has been reported for O=C(NCC1CC(c2ccccc2)C1)[C@H]1CN(c2nc3cn[nH]c(=O)c3s2)CCN1S(=O)(=O)c1ccc(OC(F)(F)F)cc1 (stereo partly shown) in the records?
Result: < 6.00
